- assay-info: M. tuberculosis growth inhibition, HTS (AID 1259417);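 also: bacteria grown with compound for 5 days at 37 °C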
- condition-details: M. tuberculosis growth inhibition; stronger effect = higher value; concentration not given here
About 760 (69%) of roughly 1,100 compounds were called active. So high a share suggests a set chosen from earlier hits. The list shows a part of the results.
Provide the recorded inhibition for the entries that follow.
Answers are plain numbers, in %.

Check out these entries, answers already filled in.
Req: Give its inhibition value. Item: Cc1cc(OCCCCn2ccnc2)cc(C(C)C)c1
Resp: 100

Req: Give its inhibition value. Item: CCOc1ccc(C(=O)Nc2nnc(-c3ccccn3)o2)cc1
Resp: -4.77

Req: Give its inhibition value. Item: COc1cc(Br)cc2cc(C(=O)Nc3cccc(C(F)(F)F)c3)c(=O)oc12
Resp: 29.4

For every listed record, write down its inhibition.
1. Cc1ccc(-c2nsc(SCC(=O)Nc3ccc4c(c3)OCO4)n2)cc1
2. COc1ccc(C(=O)Nc2nnc(C3=COCCO3)o2)cc1

Resp:
1.51
-16.2

====

- assay-info: M. tuberculosis growth inhibition, HTS (AID 1259417);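 also: bacteria grown with compound for 5 days at 37 °C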
- condition-details: M. tuberculosis DsRed fluorescence growth inhibition; stronger effect = higher value; concentration not given here
The whole screen tested about 1,100 compounds, of which about 760 (69%) were called active. The set was probably picked from earlier hits. The list shows a part of the results.
Lab note: compare inhibition against 10%. Equal or greater, write class 1. Smaller, write class 0.

Req: Does inhibition meet or surpass 10% for CCCCCCc1cc2cc(C(=O)NC)c(=N)oc2cc1O ?
Resp: class 0

Further cases:
Req: Does inhibition meet or surpass 10% for CN1CCN(C(=S)NC(=O)c2ccc(-c3ccccc3)cc2)CC1 ?
Resp: class 0

Req: Does inhibition meet or surpass 10% for COC(=O)c1sccc1NC(=O)c1c(F)c(F)c(F)c(F)c1F ?
Resp: class 1

Req: Does inhibition meet or surpass 10% for COc1ccc(CNC(=O)c2c(N)nc3sc4c(c3c2C(F)(F)F)CCC4)cc1 ?
Resp: class 0

Req: Does inhibition meet or surpass 10% for COc1ccc(-c2csc(-c3ccc(OC)c(OC)c3)n2)cc1C ?
Resp: class 0

Req: Does inhibition meet or surpass 10% for CCSc1ccc(CC(=O)Nc2nnc(-c3ccc4c(c3)OCCO4)o2)cc1 ?
Resp: class 0

Req: Does inhibition meet or surpass 10% for Cc1ccc(CSCC(=O)Nc2ccc(Cl)c(Cl)c2)cc1 ?
Resp: class 0

Req: Does inhibition meet or surpass 10% for COc1cc2c(cc1NC(=O)Nc1ccc(Cl)cc1)oc1ccccc12 ?
Resp: class 0

====

- assay-info: M. tuberculosis growth inhibition, HTS (AID 1259417);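 also: bacteria grown with compound for 5 days at 37 °C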
- condition-details: M. tuberculosis DsRed fluorescence growth inhibition; stronger effect = higher value; concentration not given here
Out of some 1,100 compounds screened, about 760 (69%) were called active. So high a share suggests a set chosen from earlier hits. The list shows a part of the results.
Provide the recorded inhibition for the entries that follow.

Req: Give its inhibition value. Item: CC1CCN(c2ccc(NC(=O)c3ccc([N+](=O)[O-])o3)cc2)CC1
Resp: 98.8% (active)

Req: Give its inhibition value. Item: COc1ccc(C(C)(C)C)cc1NC(=S)Nc1ccc(Cl)c(Cl)c1
Resp: 0.0351% (inactive)

Req: Give its inhibition value. Item: COc1ccc2[nH]cc(CCNC(=S)Nc3ccc(Nc4ccccc4)cc3)c2c1
Resp: -2.93% (inactive)

Req: Give its inhibition value. Item: O=C(Nc1nc2c(s1)CCCC2)c1ccc(Br)s1
Resp: 42.7% (active)

For every listed record, write down its inhibition.
1. CCCCc1cc(=O)oc2cc(OC(C)C(=O)OCC)c(Cl)cc12 (configuration not stated)
2. Cc1ccc(-c2nnc(NC(=O)c3ccc([N+](=O)[O-])o3)o2)c(C)c1
3. Cc1ccc(-c2csc3nc(SCC(N)=O)n(-c4ccccc4)c(=O)c23)cc1C
4. COc1ccc(NC(=O)C(Cc2c[nH]c3ccccc23)NC(C)=O)cc1 (configuration not stated)
5. Cc1ccccc1C(=O)Nc1sc2c(c1C(=O)NCCO)CCC(C(C)(C)C)C2 (configuration not stated)
6. CC(C)(C)C(=O)Nc1nnc(-c2ccc(Br)cc2)o1
7. COc1cccc(C=NNc2nc(=O)[nH]nc2C)c1O

Resp:
1: 49.4% (active); 2: 97.8% (active); 3: 4.1% (inactive); 4: 93.6% (active); 5: 5.07% (inactive); 6: 90.8% (active); 7: 91.7% (active)

====

- assay-info: M. tuberculosis growth inhibition, HTS (AID 1259417);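 also: bacteria grown with compound for 5 days at 37 °C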
- condition-details: M. tuberculosis DsRed fluorescence growth inhibition; stronger effect = higher value; concentration not given here
Among all 1,100 compounds or so, about 760 (69%) were called active. The set was probably picked from earlier hits. This is one part of the list.
readout-kind: inhibition (%)
Give bare numbers, in %.

Req: Give its inhibition value. Item: COc1ccccc1OC(=O)c1sc2ccccc2c1Cl
Resp: 17.3

Req: Give its inhibition value. Item: O=c1cc(-c2c(F)c(F)c(F)c(F)c2F)oc2ccccc12
Resp: 99.2

Req: Give its inhibition value. Item: COC(=O)COc1ccc2c(=O)c(-c3ccccc3Cl)c(C)oc2c1
Resp: 74.9

Req: Give its inhibition value. Item: O=C(CC(O)(C(F)(F)F)C(F)(F)F)Nc1ccc(Cl)c(Cl)c1
Resp: 100

Req: Give its inhibition value. Item: CCCCC(=O)Nc1nnc(-c2ccc3c(c2)CCCC3)o1
Resp: 25.2

Req: Give its inhibition value. Item: CCOC(=O)COc1ccc2c(C#N)c3ccccn3c2c1
Resp: -0.849

Req: Give its inhibition value. Item: CC1CCN(CCNC(=S)Nc2ccc(F)cc2)CC1
Resp: 0.916

Req: Give its inhibition value. Item: CCOC(=O)CSc1nnc(-c2ccc([N+](=O)[O-])cc2)o1
Resp: 95.7

Req: Give its inhibition value. Item: CCCc1cc2c(=O)c(-c3ccc4c(c3)OCCCO4)coc2cc1OCC(=O)OCC
Resp: 62.8

Req: Give its inhibition value. Item: CCN(CC)C(=S)NC(=O)c1ccc(Cl)cc1
Resp: 0.912

For every listed record, write down its inhibition.
1. COc1ccccc1-c1c(C)oc2cc(OCC(=O)OCc3ccccc3)ccc2c1=O
2. COc1ccc(CCNC(=S)N2CCN(CC=Cc3ccccc3)CC2)cc1OC

Resp:
28.7
20.3

For every listed record, write down its inhibition.
1. COC(=O)COc1ccc2c(=O)c(-c3ccc(Cl)cc3)coc2c1
2. CCN(CC)c1ccc(NC(=S)NCCc2ccc(OC)c(OC)c2)cc1
3. O=C(Oc1cccc2cccnc12)C(Cc1ccccc1)N1C(=O)C2C3CCC(C3)C2C1=O (configuration not stated)

Resp:
[78.7, 91.5, 99.8]

For every listed record, write down its inhibition.
1. Clc1ccc(SCCCn2ccnc2)cc1
2. COC(=O)CSc1nc(N2CCCCC2)c2c(c1C#N)CCCC2
3. COc1ccc(CCNc2nc(-c3ccccn3)cs2)cc1OC
4. Clc1cc(Br)ccc1OCCCCn1ccnc1
5. O=C1CC(c2ccc(Cl)cc2)CC2=C1C(c1ccc(C(F)(F)F)cc1)Nc1ccccc1N2 (configuration not stated)
6. Cc1c(OC(=O)c2ccccc2Cl)ccc2c1CCCC2

Resp:
1: 100; 2: 26.1; 3: 89.5; 4: 99.4; 5: -1.45; 6: 7.92

====

- assay-info: M. tuberculosis growth inhibition, HTS (AID 1259417);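 also: bacteria grown with compound for 5 days at 37 °C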
- condition-details: M. tuberculosis growth inhibition; stronger effect = higher value; concentration not given here
Hit rate of the full screen: of about 1,100 compounds, about 760 (69%) were called active. The set was probably picked from earlier hits. Some of the results follow.
Provide the recorded inhibition for the entries that follow.
One number for each entry, in %.

Check out these entries, answers already filled in.
Req: Give its inhibition value. Item: Cc1ccc(C(=O)NCCC2=CCCCC2)cc1I
Resp: 52.7

Req: Give its inhibition value. Item: O=C(Nc1nnc(-c2ccc(Br)cc2)o1)c1ccccc1F
Resp: 94.2

Req: Give its inhibition value. Item: O=C1N(Cc2ccccc2Cl)c2ccc(Br)cc2C1(O)c1c[nH]c2ccccc12 (stereo unspecified)
Resp: -0.98

Req: Give its inhibition value. Item: CC(C)(C)c1ccc(C(=O)Nc2nccs2)cc1Br
Resp: -5.32

For every listed record, write down its inhibition.
1. Cc1ccc(C(=O)NCCSC(C)(C)C)cc1[N+](=O)[O-]
2. O=C(CC12CC3CC(CC(C3)C1)C2)Nc1ccc(N2CCOCC2)c(Cl)c1
3. COCCCNC(=O)c1c(NC(=O)c2ccc(C(C)(C)C)cc2)sc2c1CCCC2

Resp:
1: -26.5; 2: -14.8; 3: -1.37

For every listed record, write down its inhibition.
1. Cc1ccc(-c2nnc(NC(=O)c3ccccc3Cl)o2)c(C)c1
2. Cc1ccc(C(=O)NCCC2=CCCCC2)cc1Br
3. Clc1ccc(OCc2ccccc2Cl)c(CNC2CCCCC2)c1
4. Cc1ccc(-c2nnc(NC(=O)c3ccccc3Br)o2)c(C)c1

Resp:
[62.8, 67.2, 99.3, 19.3]

Cited source: PubChem BioAssay AID1259417
